test system: Plasmodium falciparum; experiment: Screen against P. falciparum Asexual Blood Stage (ABS), at 5uM; type: functional, Dd2; conditions: tested at 5 uM
The whole screen tested about 65,000 compounds, of which about 2,100 (3.2%) showed an effect of 50% or more. The median lay at about -52%. The list comes from a sample in which strong results are over-represented; it also holds close analogues and randomly drawn compounds.
Give measured INHIBITION for each item. Keep answers brief.
Numbers only, in %.

Worked examples, 5 compounds total:
CCCn1ncc(CN2C[C@@H]3CCCN3C[C@@H]2CCSC)c1C = 29.3
C=Cn1ncc(CN2C[C@@H]3CCCN3C[C@@H]2Cc2ccccc2)c1C = 25.8
c1ccc(Oc2ccc(OC34CCCN(CC3)C4)cc2)cc1 (stereo unspecified) = 40.7
CCCn1ncc(CN2C[C@@H]3CCCN3C[C@@H]2Cc2ccccc2)c1C = 63.8
CCN(CC)c1ccc(NS(=O)(=O)c2cnn(C)c2)cn1 = -98.6

# return INHIBITION for each item in the list
1. CCn1ncc(CN2C[C@@H]3CCCN3C[C@@H]2CCSC)c1C
2. OC(CN1CCN(CC2CCCCC2)CC1)c1ccccc1 (stereo unspecified)
3. NC(=O)C(NC1CCN(CC2CCCCC2)CC1)c1ccccc1 (stereo unspecified)
4. CCN(CC)c1ccc(NS(=O)(=O)c2cccnc2)cn1
5. CCCn1ncc(CN2C[C@@H]3CCCN3C[C@H]2CCSC)c1C
6. CCCn1ncc(CN2C[C@@H]3CCCN3C[C@H]2Cc2ccccc2)c1C

Reply text:
[-116, 3.94, -75, 59.3, -62.1, 57.8]

====

tested on: Plasmodium falciparum; assay: Screen against P. falciparum Asexual Blood Stage (ABS), at 5uM; format: functional, Dd2; conditions: tested at 5 uM
In all, about 65,000 compounds went through this assay and about 2,100 (3.2%) showed an effect of 50% or more. The median lay at about -52%. Shown is part of a subset that was picked to be rich in strong results.
INHIBITION strictly less than -60% = satisfied. Otherwise not satisfied.

These solved cases illustrate the format of a correct answer.
Cc1nn(C)c2c(N3CCN(C(=O)C4CCCO4)CC3)ncnc12 (centres undefined) = not satisfied
Fc1cccc(N2CCCC3(CN(Cc4cccnc4)CCO3)C2)c1 (centres undefined) = not satisfied
CCc1[nH]c2c(CNC(=O)C3CCCN(C)C3)cc(C)cc2c1C (centres undefined) = not satisfied

Inquiry: Quick check: does CC(Cn1cccn1)NCc1nc(-c2cccnc2)no1 (centres undefined) have INHIBITION under -60%?
Reply text: not satisfied

Inquiry: Find out if reported INHIBITION for O=C1C(N2CC[C@@H](O)C2)CCCN1Cc1cccc(C(F)(F)F)c1 (some centres undefined) is less than -60%
Reply text: not satisfied

Inquiry: Dear reviewer, please state whether Cn1cc(CN2CCOC3(CCCN(c4cccc(F)c4)C3)C2)cn1 (centres undefined) has INHIBITION strictly beneath -60%.
Reply text: not satisfied

Inquiry: Below -60% on INHIBITION? Entry CCc1[nH]c2c(CNC(=O)C3CCN(C)C3)cc(C)cc2c1C (centres undefined)
Reply text: not satisfied

Inquiry: Find out if reported INHIBITION for CN1CCCC1CCn1ccnc1-c1ccc2ccccc2n1 (centres undefined) is less than -60%
Reply text: not satisfied

Inquiry: is_below(INHIBITION, -60%) for CC1(C)CC(N(Cc2ccccc2)Cc2cccnc2)CC(C)(C)N1 ?
Reply text: not satisfied

Inquiry: Lab note: confirm whether the reported INHIBITION for this compound is below -60%, equality not counting. compound: Clc1cc(Cl)cc(OCCN2CCC(n3cncn3)CC2)c1
Reply text: not satisfied

Inquiry: For O=C(CCC1CCCN(C(=O)CCc2ccc(F)c(F)c2)C1)NC1CC1 (centres undefined) , is the recorded INHIBITION below the cut-off of -60%?
Reply text: satisfied

Inquiry: Here's an entry: CN1CCC(N(CCc2ccccc2)C(=O)c2ccc(C#N)cc2)CC1 . Is its INHIBITION below -60%?
Reply text: not satisfied

Inquiry: Please let me know if COc1cc(NC2CCS(=O)(=O)CC2)ncn1 shows INHIBITION below -60%.
Reply text: satisfied

Inquiry: Lab log: compare recorded INHIBITION with -60%; is it strictly lower for OCCN1CCOC2(CCCN(c3cccc(F)c3)C2)C1 (centres undefined) ?
Reply text: not satisfied

Inquiry: Is the reported INHIBITION for COc1ccc(C(C)N(C)Cc2nc3c(cnn3C)c(=O)[nH]2)cc1 (centres undefined) strictly below -60%?
Reply text: not satisfied

Inquiry: Is INHIBITION strictly under -60% for the entry Cc1ccc(CN(Cc2nc3c(cnn3C)c(=O)[nH]2)C(C)C)s1 ?
Reply text: satisfied

Inquiry: Below -60% on INHIBITION? Entry O=C1CC2(CCCCN2C(=O)c2ccco2)CN1c1cccnc1 (centres undefined)
Reply text: satisfied

====

test system: Plasmodium falciparum; assay: Screen against P. falciparum Asexual Blood Stage (ABS), at 5uM; type: functional, Dd2; settings: tested at 5 uM
About 2,100 (3.2%) of roughly 65,000 compounds showed an effect of 50% or more. The median lay at about -52%. This is one part of a sample in which strong results are shown more often than they occur.
Experimental Endpoint: INHIBITION
Give me the value, and tack the unit on after it.

Each compound below has a reported value. Please supply its INHIBITION.
1. Cc1noc([C@@H]2CCO[C@@H]3CCN(Cc4ccc(C)s4)C[C@@H]32)n1
2. O=C(CN1CCOC(Cn2cccn2)C1)NCc1ccco1 (configuration not stated)
3. CN1CCCCC1C(=O)N1CCN(c2ccccc2C#N)CC1 (configuration not stated)
4. COc1cc(CNc2cnn(C)c2)cc2c1OCCO2
5. CNC(=O)c1cnc(C=Cc2cc(OC)c(O)c(OC)c2)s1

Reply text:
["10.3%", "-88.2%", "11.5%", "-181%", "-64.8%"]

Hello, I would appreciate it if you could give INHIBITION for each entry below.
1. COCC(=O)Nc1ccc(-c2noc([C@@H]3CCCN3)n2)cn1
2. CN1CCN(C[C@H]2CC[C@@H](Cc3ccc4c(c3)OCO4)O2)CC1
3. CCO[C@H]1C[C@@H](O)C12CCN(C1CCN(c3ccccc3C)CC1)CC2
4. COc1ccc(C[C@@H]2CC[C@H](CN(C)C3CCN(C)CC3)O2)cc1
5. COc1cc(CNCCn2cc(C)cn2)cc2c1OCCO2

Reply text:
1. 52.6%
2. -28.1%
3. 10.7%
4. 50.9%
5. 58.2%

Look at each compound and report its INHIBITION.
1. O=C(NCC1(O)CCOCC1)c1ccc(F)cc1
2. Cc1cc(CN2C[C@@H](C)[C@@]3(CCN(CC(=O)N(C)C)C3=O)C2)oc1C
3. Cc1n[nH]c(C)c1C1COCCN1c1ncnc2sccc12 (configuration not stated)
4. Cc1cccc(C)c1Oc1ncccc1CNC(=O)C1(C)CCCNC1 (configuration not stated)
5. O=C(NCc1cccnc1-n1cncn1)c1ccncc1
6. CCCc1noc(CCCC(=O)N2CCCC2c2cnn(C)c2)n1 (configuration not stated)
7. CN1CCCCCC1C(=O)N1CCCN(c2ccccc2)CC1 (configuration not stated)
8. Cc1cnn(CCNCCCOc2ccc3c(c2)OCO3)c1

Reply text:
1: -171%; 2: -100%; 3: -34.7%; 4: 56.1%; 5: -55.2%; 6: -37%; 7: 61.8%; 8: 50.6%

Provide INHIBITION for all items below, preserving their order.
1. Cc1nnc(C2CCN(C(=O)c3ccc4nccnc4c3)CC2)s1
2. COc1ccc(-n2cnnc2SCC(=O)N(C)C(C)C)cn1
3. O=C(CCNc1ncccn1)N1CCCC(n2cccn2)C1 (configuration not stated)

Reply text:
1: -22.7%; 2: -60.2%; 3: -28.6%

====

test system: Plasmodium falciparum; test: Screen against P. falciparum Asexual Blood Stage (ABS), at 5uM; type: functional, Dd2; conditions: tested at 5 uM
The campaign covered roughly 65,000 compounds. About 2,100 (3.2%) showed an effect of 50% or more. The median lay at about -52%. The list comes from a sample in which strong results are over-represented; it also holds close analogues and randomly drawn compounds.
Class membership depends on INHIBITION alone; the intervals are low = under -80%, medium = from -80% up to 20%, high = 20% and over

Inquiry: Into which bin does this molecule go? N#Cc1cc(Cl)ccc1N1CCN(C(=O)C2CCC2)CC1
Reply text: medium

Inquiry: Which class holds CCCOC1CCCN(c2ccnc(C(=O)NCc3ccco3)c2)C1 (configuration not stated) ?
Reply text: high

Inquiry: Categorize the following entry: N#Cc1cccnc1NCCc1cc(F)cc2c1OCOC2
Reply text: low

Inquiry: Category of CCN(CC)C(=O)C1CCN(c2ccc(Cl)cc2C#N)CC1 , please.
Reply text: low

Inquiry: Entry Cc1cc(C[C@@H]2COC[C@H]2NCc2ccc(Cl)c(Cl)c2)on1 belongs to which category?
Reply text: medium

Inquiry: Band of N#Cc1ccc(CNCCc2cc(F)cc3c2OCOC3)cc1 ?
Reply text: low

Inquiry: Please classify: COc1ccc(CNCCc2cc(F)cc3c2OCOC3)cc1OC
Reply text: high

Inquiry: Please indicate the class for Cc1cnc(N2CCC(OCCN3CCCCC3)C2)nc1C (configuration not stated) based on its INHIBITION.
Reply text: high

Inquiry: Dear colleague, I would appreciate it if you could identify the bin for Cc1cc(C)nc(N2CCC(OCCN3CCCCC3)C2)n1 (configuration not stated) and reply at your convenience.
Reply text: medium

Inquiry: Form: Item = CC(C)NC(=O)[C@H]1C[C@H]2OCC[C@H]2N(Cc2ccc3ccccc3n2)C1 ; Class = ?
Reply text: medium

Inquiry: Category of COc1ccnc(N2CCC(OCCN3CCCCC3)C2)n1 (configuration not stated) , please.
Reply text: high
